Consider the following compounds; for each one, report its MIC.
System: Klebsiella pneumoniae
Assay: Antimicrobial activity against carbapenem-resistant Klebsiella pneumoniae ZJ68 deficient in CTX-M-15, ompK35/36 by CLSI method
Express the result in µg/mL but write the number alone.

Task: Report MIC under test system Klebsiella pneumoniae for `CC(C)(O/N=C(\C(=O)N[C@@H]1C(=O)N2C(C(=O)[O-])=C(C[n+]3ccccc3)CS[C@H]12)c1csc(N)n1)C(=O)O` .
Output: 256

Task: Report MIC under test system Klebsiella pneumoniae for `CN(C)c1cc(NC(=O)CNC(C)(C)C)c(O)c2c1C[C@H]1C[C@H]3[C@H](N(C)C)C(O)=C(C(N)=O)C(=O)[C@@]3(O)C(O)=C1C2=O` .
Output: 0.125

###

Tested on: Klebsiella pneumoniae
Assay: Antimicrobial activity against carbapenem-resistant Klebsiella pneumoniae FZ49 deficient in IMP-8, TEM-1, SHV-11, CTX-M-14, qnrB2, aac(6')-Ib, ompK35/36 by CLSI method
Assay type: functional
ENDPOINT: MIC (µg/mL)
Express the result in µg/mL but write the number alone.

Task: // Input: `C[C@@H](O)[C@H]1C(=O)N2C(C(=O)O)=C(S[C@@H]3CN[C@H](C(=O)N(C)C)C3)[C@H](C)[C@H]12` . Output its MIC only.
Output: 2

Task: // Input: `C[C@@H](O)[C@H]1C(=O)N2C(C(=O)O)=C(S[C@@H]3CN[C@H](C(=O)Nc4cccc(C(=O)O)c4)C3)[C@H](C)[C@H]12` . Output its MIC only.
Output: 4

Task: // Input: C[C@@H](O)[C@H]1C(=O)N2C(C(=O)O)=C(SCCNC=N)C[C@H]12 [IMIPENEM ANHYDROUS] . Output its MIC only.
Output: 8

Task: // Input: `CN(C)c1cc(NC(=O)CNC(C)(C)C)c(O)c2c1C[C@H]1C[C@H]3[C@H](N(C)C)C(O)=C(C(N)=O)C(=O)[C@@]3(O)C(O)=C1C2=O` . Output its MIC only.
Output: 0.5

###

Consider the following compounds; for each one, report its MIC.
System: Klebsiella pneumoniae
Assay: Antimicrobial activity against carbapenem-resistant Klebsiella pneumoniae ZJ68 deficient in CTX-M-15, ompK35/36 by CLSI method
Express the result in µg/mL but write the number alone.

Task: Report MIC under test system Klebsiella pneumoniae for C[C@@H](O)[C@H]1C(=O)N2C(C(=O)O)=C(SCCNC=N)C[C@H]12 [IMIPENEM ANHYDROUS] .
Output: 4

Task: Report MIC under test system Klebsiella pneumoniae for `CO[C@@]1(NC(=O)Cc2cccs2)C(=O)N2C(C(=O)O)=C(COC(N)=O)CS[C@@H]21` .
Output: 32

Task: Report MIC under test system Klebsiella pneumoniae for `C[C@@H](O)[C@H]1C(=O)N2C(C(=O)O)=C(S[C@@H]3CN[C@H](C(=O)N(C)C)C3)[C@H](C)[C@H]12` .
Output: 8

Task: Report MIC under test system Klebsiella pneumoniae for `C[C@@H](O)[C@H]1C(=O)N2C(C(=O)O)=C(S[C@@H]3CN[C@H](C(=O)Nc4cccc(C(=O)O)c4)C3)[C@H](C)[C@H]12` .
Output: 64

###

System: Klebsiella pneumoniae
Experiment: Antimicrobial activity against Klebsiella pneumoniae ZJ70T expressing KPC-2 by CLSI method
Format: functional
Consider the following compounds; for each one, report its MIC.
Express the result in µg/mL but write the number alone.

Task: // Input: CO[C@@]1(NC(=O)Cc2cccs2)C(=O)N2C(C(=O)O)=C(COC(N)=O)CS[C@@H]21 [CEFOXITIN] . Output its MIC only.
Output: 32

Task: // Input: CC(C)(O/N=C(\C(=O)N[C@@H]1C(=O)N2C(C(=O)[O-])=C(C[n+]3ccccc3)CS[C@H]12)c1csc(N)n1)C(=O)O [CEFTAZIDIME] . Output its MIC only.
Output: 32

Task: // Input: `C[C@@H](O)[C@H]1C(=O)N2C(C(=O)O)=C(S[C@@H]3CN[C@H](C(=O)Nc4cccc(C(=O)O)c4)C3)[C@H](C)[C@H]12` . Output its MIC only.
Output: 16

Task: // Input: C[C@@H](O)[C@H]1C(=O)N2C(C(=O)O)=C(SCCNC=N)C[C@H]12 [IMIPENEM ANHYDROUS] . Output its MIC only.
Output: 16

Task: // Input: CN(C)c1cc(NC(=O)CNC(C)(C)C)c(O)c2c1C[C@H]1C[C@H]3[C@H](N(C)C)C(O)=C(C(N)=O)C(=O)[C@@]3(O)C(O)=C1C2=O [TIGECYCLINE] . Output its MIC only.
Output: 0.13

Task: // Input: NCC[C@H](O)C(=O)N[C@@H]1C[C@H](N)[C@@H](O[C@H]2O[C@H](CN)[C@@H](O)[C@H](O)[C@H]2O)[C@H](O)[C@H]1O[C@H]1O[C@H](CO)[C@@H](O)[C@H](N)[C@H]1O [AMIKACIN] . Output its MIC only.
Output: 1

Task: // Input: CO/N=C(\C(=O)N[C@@H]1C(=O)N2C(C(=O)O)=C(COC(C)=O)CS[C@H]12)c1csc(N)n1 [CEFOTAXIME] . Output its MIC only.
Output: 64

Task: // Input: C[C@@H](O)[C@H]1C(=O)N2C(C(=O)O)=C(S[C@@H]3CN[C@H](C(=O)N(C)C)C3)[C@H](C)[C@H]12 [MEROPENEM] . Output its MIC only.
Output: 8

###

Tested on: Enterobacter cloacae
Assay: Antimicrobial activity against carbapenem-resistant Enterobacter cloacae NJ88 deficient in CTX-M-14, ompC/F by CLSI method
Assay type: functional
Consider the following molecules; for each one, report its MIC.

Task: // Input: `C[C@@H](O)[C@H]1C(=O)N2C(C(=O)O)=C(S[C@@H]3CN[C@H](C(=O)Nc4cccc(C(=O)O)c4)C3)[C@H](C)[C@H]12` . Output its MIC only.
Output: 128 µg/mL

Task: // Input: `CC(C)(O/N=C(\C(=O)N[C@@H]1C(=O)N2C(C(=O)[O-])=C(C[n+]3ccccc3)CS[C@H]12)c1csc(N)n1)C(=O)O` . Output its MIC only.
Output: > 256 µg/mL

Task: // Input: `CO[C@@]1(NC(=O)Cc2cccs2)C(=O)N2C(C(=O)O)=C(COC(N)=O)CS[C@@H]21` . Output its MIC only.
Output: > 256 µg/mL

Task: // Input: `CO/N=C(\C(=O)N[C@@H]1C(=O)N2C(C(=O)O)=C(COC(C)=O)CS[C@H]12)c1csc(N)n1` . Output its MIC only.
Output: > 256 µg/mL

Task: // Input: `NCC[C@H](O)C(=O)N[C@@H]1C[C@H](N)[C@@H](O[C@H]2O[C@H](CN)[C@@H](O)[C@H](O)[C@H]2O)[C@H](O)[C@H]1O[C@H]1O[C@H](CO)[C@@H](O)[C@H](N)[C@H]1O` . Output its MIC only.
Output: > 256 µg/mL

Task: // Input: `CN(C)c1cc(NC(=O)CNC(C)(C)C)c(O)c2c1C[C@H]1C[C@H]3[C@H](N(C)C)C(O)=C(C(N)=O)C(=O)[C@@]3(O)C(O)=C1C2=O` . Output its MIC only.
Output: 0.5 µg/mL

Task: // Input: C[C@@H](O)[C@H]1C(=O)N2C(C(=O)O)=C(SCCNC=N)C[C@H]12 [IMIPENEM ANHYDROUS] . Output its MIC only.
Output: 16 µg/mL

###

Consider the following compounds; for each one, report its MIC.
System: Klebsiella pneumoniae
Assay: Antimicrobial activity against Klebsiella pneumoniae GZ64T expressing IMP-4 by CLSI method
Format: functional
Put your answer as a value accompanied by its unit after it.

Task: Report MIC under test system Klebsiella pneumoniae for `C[C@@H](O)[C@H]1C(=O)N2C(C(=O)O)=C(S[C@@H]3CN[C@H](C(=O)Nc4cccc(C(=O)O)c4)C3)[C@H](C)[C@H]12` .
Output: 4 µg/mL

Task: Report MIC under test system Klebsiella pneumoniae for NCC[C@H](O)C(=O)N[C@@H]1C[C@H](N)[C@@H](O[C@H]2O[C@H](CN)[C@@H](O)[C@H](O)[C@H]2O)[C@H](O)[C@H]1O[C@H]1O[C@H](CO)[C@@H](O)[C@H](N)[C@H]1O [AMIKACIN] .
Output: 1 µg/mL

Task: Report MIC under test system Klebsiella pneumoniae for C[C@@H](O)[C@H]1C(=O)N2C(C(=O)O)=C(SCCNC=N)C[C@H]12 [IMIPENEM ANHYDROUS] .
Output: 2 µg/mL

Task: Report MIC under test system Klebsiella pneumoniae for CO[C@@]1(NC(=O)Cc2cccs2)C(=O)N2C(C(=O)O)=C(COC(N)=O)CS[C@@H]21 [CEFOXITIN] .
Output: 256 µg/mL

Task: Report MIC under test system Klebsiella pneumoniae for C[C@@H](O)[C@H]1C(=O)N2C(C(=O)O)=C(S[C@@H]3CN[C@H](C(=O)N(C)C)C3)[C@H](C)[C@H]12 [MEROPENEM] .
Output: 2 µg/mL

Task: Report MIC under test system Klebsiella pneumoniae for CN(C)c1cc(NC(=O)CNC(C)(C)C)c(O)c2c1C[C@H]1C[C@H]3[C@H](N(C)C)C(O)=C(C(N)=O)C(=O)[C@@]3(O)C(O)=C1C2=O [TIGECYCLINE] .
Output: 0.06 µg/mL

Task: Report MIC under test system Klebsiella pneumoniae for CC(C)(O/N=C(\C(=O)N[C@@H]1C(=O)N2C(C(=O)[O-])=C(C[n+]3ccccc3)CS[C@H]12)c1csc(N)n1)C(=O)O [CEFTAZIDIME] .
Output: 256 µg/mL

Task: Report MIC under test system Klebsiella pneumoniae for CO/N=C(\C(=O)N[C@@H]1C(=O)N2C(C(=O)O)=C(COC(C)=O)CS[C@H]12)c1csc(N)n1 [CEFOTAXIME] .
Output: 128 µg/mL
